The measurements presented in this section are drawn from the supplement of paper PMC11208160.

# assayProtocol: recombinant barcode read abundance after kanamycin selection (control-corrected) (log10(CPM+1)); higher = more efficient recombination; sequences stand for … in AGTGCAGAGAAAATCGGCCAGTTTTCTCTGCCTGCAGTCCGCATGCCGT…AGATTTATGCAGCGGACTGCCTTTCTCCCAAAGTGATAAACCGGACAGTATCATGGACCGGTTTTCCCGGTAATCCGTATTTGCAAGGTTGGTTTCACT; site = the 11-nt target
observedProperty: recombinant barcode read abundance (log10)

* ACAACCACTTGGGTTCTAACCTGTTGCCT (site ACAACCACTAG) | 0.235
* GGGACCTCTTGGGTTCTAACCTGTTGCGG (site GGGACCTCTAC) | 1.25
* GTCCTACCTTGGGTTCTAACCTGTTGCCT (site GTCCTACCTAG) | 1.54
* TAATTTGCTTGGGTTCTAACCTGTTGCCT (site CGCGAGTCTCA) | 0.215
* CTGTGCCCTTGGGTTCTAACCTGTTGCCT (site CTGAGCCCTAG) | 0.105
* ACACTAACTTGGGTTCTAACCTGTTGCCT (site AGACTAACTAG) | 0.0933
* TGTAGTCCTTGGGTTCTAACCTGTTGCTT (site TGTAGTCCTAC) | 0.264
* GTCGTAGCTTGGGTTCTAACCTGTTGCCT (site GTCGTAGCTAG) | 0.256

====

# assayProtocol: recombinant barcode read abundance after kanamycin selection (control-corrected) (log10(CPM+1)); higher = more efficient recombination; sequences stand for … in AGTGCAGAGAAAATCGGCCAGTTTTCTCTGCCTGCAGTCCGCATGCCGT…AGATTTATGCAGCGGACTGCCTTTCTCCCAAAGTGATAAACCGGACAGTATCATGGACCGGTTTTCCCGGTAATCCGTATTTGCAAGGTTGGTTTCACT; site = the 11-nt target
observedProperty: recombinant barcode read abundance (log10)

• CTTTCACCTTGGGTTCTAACCTGTTGCCT (site CTTTCACCTAG) = 0.547
• CGTGAGACTTGGGTTCTAACCTGTTGCCT (site CGTAAGACTAG) = 0.341
• GAGGGTCCTTGGGTTCTAACCTGTTGCGT (site GAGGGTCCTAG) = 1.86
• CTAAATACTTGGGTTCTAACCTGTTGCGT (site CTACATTCTAC) = 0.00955
• AGACATCCTTGGGTTCTAACCTGTTGCTT (site AGACATCCTAA) = 0.948
• AGGTTCCCTTGGGTTCTAACCTGTTGCTG (site AGGTTCCCTTA) = 0.358
• CAAACATCTTGGGTTCTAACCTGTTGCCT (site CAAACACCTAG) = 0.0425
• ACACGCCCTTGGGTTCTAACCTGTTGCAC (site AGACTCCCTGT) = 0.0104
• GTGCACACTTGGGTTCTAACCTGTTGCGG (site GTGCACTCTCC) = 0.322
• CCAGATTCTTGGGTTCTAACCTGTTGCCT (site CGAGATTCTAG) = 0.297

====

# assayProtocol: recombinant UMI read abundance after kanamycin selection (control-corrected) (log10(CPM+1)); higher = more efficient recombination; extreme values may be limits of the assay; sequences stand for … in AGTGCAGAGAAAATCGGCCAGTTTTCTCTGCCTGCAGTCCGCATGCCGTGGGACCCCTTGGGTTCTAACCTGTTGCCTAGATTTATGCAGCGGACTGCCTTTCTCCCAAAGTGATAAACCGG…AGGTTGGTTTCACT; site = the 11-nt donor
Note to self: values exactly at 0.2 are class 1. So recombinant UMI read abundance (log10) at or above 0.2 is class 1, below is class 0.

- GTAGTCCCATGGACCGGTTTTCCCGGTAATCCGTATTTGGT (site GTAGTCCCTAC): class 1
- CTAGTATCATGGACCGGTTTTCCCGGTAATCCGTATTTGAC (site CCAGTATCTTT): class 1
- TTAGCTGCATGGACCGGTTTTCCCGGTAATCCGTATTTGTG (site TTGGCTGCTCA): class 0
- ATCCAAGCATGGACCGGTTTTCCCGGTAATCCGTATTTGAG (site ATCCAAGCTCT): class 1
- CACGTCACATGGACCGGTTTTCCCGGTAATCCGTATTTGGG (site CAAGTCACTCC): class 0
- CCCAGATCATGGACCGGTTTTCCCGGTAATCCGTATTTGTC (site CCCAAATCTGA): class 0
- TGATCATCATGGACCGGTTTTCCCGGTAATCCGTATTTGCG (site TGATCATCTCG): class 1
- CCTCTCTCATGGACCGGTTTTCCCGGTAATCCGTATTTGTA (site CATCTCTCTTA): class 0
- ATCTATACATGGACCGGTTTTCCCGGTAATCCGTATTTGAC (site ATCTATACTCT): class 0
- GGTTAGACATGGACCGGTTTTCCCGGTAATCCGTATTTGAG (site TGTTAGACTCT): class 0
- CAGGGCCCATGGACCGGTTTTCCCGGTAATCCGTATTTGTT (site CAGGGCCCTAA): class 1
